Values from ChEMBL document CHEMBL5291721

target: Bile salt export pump (Homo sapiens, UniProt O95342); type: functional; further: assay procedure not described here
Sequence (O95342 whole entry): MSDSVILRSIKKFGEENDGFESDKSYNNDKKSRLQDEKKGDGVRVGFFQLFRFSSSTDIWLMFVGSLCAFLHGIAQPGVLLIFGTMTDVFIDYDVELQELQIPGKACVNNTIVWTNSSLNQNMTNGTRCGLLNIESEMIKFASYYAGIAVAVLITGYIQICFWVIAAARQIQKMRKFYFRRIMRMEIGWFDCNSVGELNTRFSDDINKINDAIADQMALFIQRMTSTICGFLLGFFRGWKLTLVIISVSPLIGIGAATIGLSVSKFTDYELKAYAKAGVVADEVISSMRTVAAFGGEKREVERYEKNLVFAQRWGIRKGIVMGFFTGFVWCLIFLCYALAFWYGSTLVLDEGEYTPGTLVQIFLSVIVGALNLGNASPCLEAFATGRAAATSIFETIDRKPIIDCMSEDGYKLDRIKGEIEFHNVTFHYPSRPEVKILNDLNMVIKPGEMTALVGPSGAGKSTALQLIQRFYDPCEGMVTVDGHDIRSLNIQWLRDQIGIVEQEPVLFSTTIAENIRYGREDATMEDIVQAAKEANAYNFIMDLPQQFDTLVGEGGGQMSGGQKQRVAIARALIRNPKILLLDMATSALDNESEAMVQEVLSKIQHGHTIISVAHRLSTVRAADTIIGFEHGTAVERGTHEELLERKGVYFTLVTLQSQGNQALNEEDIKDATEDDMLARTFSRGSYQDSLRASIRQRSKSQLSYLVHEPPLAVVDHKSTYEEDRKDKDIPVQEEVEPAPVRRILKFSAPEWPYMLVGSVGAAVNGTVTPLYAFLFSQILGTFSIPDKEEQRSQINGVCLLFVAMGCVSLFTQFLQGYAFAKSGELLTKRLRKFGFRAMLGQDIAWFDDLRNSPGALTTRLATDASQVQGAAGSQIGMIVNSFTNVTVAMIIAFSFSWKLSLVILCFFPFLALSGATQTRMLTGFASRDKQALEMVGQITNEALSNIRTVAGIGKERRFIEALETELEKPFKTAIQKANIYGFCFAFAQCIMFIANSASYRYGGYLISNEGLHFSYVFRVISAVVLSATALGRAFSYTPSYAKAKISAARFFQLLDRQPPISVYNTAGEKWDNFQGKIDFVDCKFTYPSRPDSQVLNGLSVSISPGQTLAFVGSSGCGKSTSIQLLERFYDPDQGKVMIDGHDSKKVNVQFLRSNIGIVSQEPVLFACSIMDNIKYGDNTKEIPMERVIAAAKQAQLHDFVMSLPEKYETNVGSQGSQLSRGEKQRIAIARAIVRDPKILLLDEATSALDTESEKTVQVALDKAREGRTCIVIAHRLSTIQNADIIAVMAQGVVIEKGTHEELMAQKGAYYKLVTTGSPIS
OBSERVATION TYPE: log10 AC50 (log10 of the value in µM)

COMPOUND	READING
CN1C(C(=O)Nc2ccccn2)=C(O)c2ccccc2S1(=O)=O [PIROXICAM]	2.30
CO[C@H]1/C=C/O[C@@]2(C)Oc3c(C)c(O)c4c(O)c(c(/C=N/N5CCN(C)CC5)c(O)c4c3C2=O)NC(=O)/C(C)=C\C=C\[C@H](C)[C@H](O)[C@@H](C)[C@@H](O)[C@@H](C)[C@H](OC(C)=O)[C@@H]1C [RIFAMPIN]	0.98
COc1cc2nccc(Oc3ccc(NC(=O)C4(C(=O)Nc5ccc(F)cc5)CC4)cc3)c2cc1OC [CABOZANTINIB]	0.94
C[C@]12C=CC(=O)N[C@@H]1CC[C@@H]1[C@@H]2CC[C@]2(C)[C@@H](C(=O)Nc3cc(C(F)(F)F)ccc3C(F)(F)F)CC[C@@H]12 [DUTASTERIDE]	1.15
O=C1CCc2cc(OCCCCc3nnnn3C3CCCCC3)ccc2N1 [CILOSTAZOL]	1.79
CCN1CCN(Cc2ccc(Nc3ncc(F)c(-c4cc(F)c5nc(C)n(C(C)C)c5c4)n3)nc2)CC1 [ABEMACICLIB]	1.52
O=C1C(CC[S+]([O-])c2ccccc2)C(=O)N(c2ccccc2)N1c1ccccc1 (stereo unspecified) [SULFINPYRAZONE]	1.38
CC(C(=O)O)c1ccc2c(c1)[nH]c1ccc(Cl)cc12 (stereo unspecified) [CARPROFEN]	2.08
COc1ccccc1OCCNCC(O)COc1cccc2[nH]c3ccccc3c12 (stereo unspecified) [CARVEDILOL]	1.90
CC(C)(O)CNc1nc(Nc2ccnc(C(F)(F)F)c2)nc(-c2cccc(C(F)(F)F)n2)n1 [ENASIDENIB]	0.72
